System: Candida albicans
test.method.notes: Antifungal activity against fluconazole-resistant Candida albicans 632 assessed as inhibition of fungal growth by CLSI based microdilution method
Type: functional
attribute.measured: MIC (µg/mL)
Kindly provide the numeric value in µg/mL only, without the unit symbol.

{"molecule": "CCNC(=O)/C=C/c1ccc(COC(Cn2ccnc2)c2ccc(Cl)cc2Cl)cc1 (centres undefined)", "attribute.measured": "MIC", "val": 2}

Now turn to the next molecule.
Ask | Could you tell me which MIC is on file for O=C(/C=C/c1ccc(COC(Cn2ccnc2)c2ccc(Cl)cc2Cl)cc1)Nc1ccc(Cl)cc1Cl (centres undefined) ?
Reply | 0.25

* * *

Tested on: Aspergillus fumigatus
test.method.notes: Antifungal activity against Aspergillus fumigatus CGMCC 3.7795 assessed as inhibition of fungal growth by CLSI protocol based microdilution method
Type: functional
attribute.measured: MIC (µg/mL)
Kindly provide the numeric value in µg/mL only, without the unit symbol.

Illustrative cases are given below, each with its answer.
{"molecule": "CCNC(=O)/C=C/c1ccc(COC(Cn2ccnc2)c2ccc(Cl)cc2Cl)cc1 (stereo not given)", "units": "µg/mL", "MIC": 8}
{"molecule": "O=C(/C=C/c1ccc(COC(Cn2ccnc2)c2ccc(Cl)cc2Cl)cc1)Nc1cccc(Cl)c1 (stereo not given)", "units": "µg/mL", "MIC": 16}
{"molecule": "O=C(/C=C/c1ccc(COC(Cn2ccnc2)c2ccc(Cl)cc2Cl)cc1)Nc1ccc(Cl)cc1 (stereo not given)", "units": "µg/mL", "MIC": 0.5}

Now turn to the next molecule.
Ask | Could you tell me which MIC is on file for Cc1ccc(NC(=O)/C=C/c2ccc(COC(Cn3ccnc3)c3ccc(Cl)cc3Cl)cc2)cc1 (stereo not given) ?
Reply | 16
